Values compiled from PubChem BioAssay (NCATS).

assay: NFAT Signaling Pathway (AID 444); details: Jurkat NFAT-bla M1, carbachol, beta-lactamase ratio, 5 h; at 7.69 µM (top of the series) unless noted;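 further: carbachol stimulus at about its EC50 of 1 µM final; on the % scale 0 is the no-effect control and ±100 the full control effect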
Results filed as inconclusive are left out. Active and inactive are the calls of the source. The call rests on the fitted dose curve; in most records, active means well fitted curve in either direction with a large enough effect (not every such curve was filed as active); inconclusive means small, poorly fitted or top-dose-only effect, or another doubt; inactive means flat fitted curve, though single readings scatter.
quantity: activity change, negative = inhibition

Reference set (5 entries):
>  <compound>
NC(=O)C[C@H](N)C(N)=O

>  <val>
12.4% (inactive)

$$$$
>  <compound>
CSC1(SC2=NCCN2)SC2(NCCN2)S1

>  <val>
-0.372% (inactive)

$$$$
>  <compound>
CC(=O)c1ccc(O)c(CN(C2CCCCC2)C2CCCCC2)c1O

>  <val>
16% (inactive)

$$$$
>  <compound>
COc1ccc(-c2nc3cnc(Oc4ccccc4)nc3n(C3CC3)c2=O)cc1

>  <val>
15.1% (inactive)

$$$$
>  <compound>
O=C(O)CCC/C=C\C[C@H]1[C@@H](/C=C\[C@@H](O)C2Cc3ccccc3C2)[C@H](F)C[C@H]1O

>  <val>
14.3% [at 38 µM] (inactive)

$$$$

Query: Consider the compound O=C(O)CC(CC(=O)O)n1cccc1 and give its measured activity change, negative = inhibition.
Result: 8.97% (inactive)

Query: Consider the compound O=C(O)c1cc(-c2ccc(-c3ccc(-c4cc(C(=O)O)c5cc(Cl)ccc5n4)cc3)cc2)nc2ccc(Cl)cc12 and give its measured activity change, negative = inhibition.
Result: -22% (inactive)

Query: Consider the compound CC(C)N(CC(=O)O)CC(=O)O and give its measured activity change, negative = inhibition.
Result: 4.66% (inactive)

Query: Consider the compound C=C[C@]1(C)C[C@H](OC(=O)CO)[C@]2(C)C3C(=O)CC[C@]3(CC[C@H]2C)[C@H](C)[C@H]1O (some centres undefined) and give its measured activity change, negative = inhibition.
Result: -4.75% (inactive)

---

Molecular target: Lysosomal acid glucosylceramidase (Homo sapiens) (UniProt P04062)
Sequence (P04062 whole entry, looked up): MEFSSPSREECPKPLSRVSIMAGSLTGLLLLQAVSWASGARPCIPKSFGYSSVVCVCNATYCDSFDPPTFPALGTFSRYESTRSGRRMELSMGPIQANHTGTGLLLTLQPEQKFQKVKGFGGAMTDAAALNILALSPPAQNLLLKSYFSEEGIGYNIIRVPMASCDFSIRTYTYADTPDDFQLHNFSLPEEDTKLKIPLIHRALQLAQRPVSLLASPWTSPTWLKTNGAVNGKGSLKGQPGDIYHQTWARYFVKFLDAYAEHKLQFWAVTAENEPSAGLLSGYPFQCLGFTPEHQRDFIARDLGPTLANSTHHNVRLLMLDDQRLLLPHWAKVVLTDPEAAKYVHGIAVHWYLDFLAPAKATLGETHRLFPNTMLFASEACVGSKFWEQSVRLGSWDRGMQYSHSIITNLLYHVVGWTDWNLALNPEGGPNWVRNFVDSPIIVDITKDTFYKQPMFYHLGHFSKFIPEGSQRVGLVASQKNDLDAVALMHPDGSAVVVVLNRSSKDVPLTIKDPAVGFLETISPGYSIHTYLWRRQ
Assay: Glucocerebrosidase-p2 (AID 348); further: potency means the concentration at half of the fitted maximal effect
Conditions: purified GBA, blue fluorogenic substrate, 40 min
Description: Beta-glucocerebrosidase catalyzes the hydrolysis of beta-glucocerebroside to glucose and ceramide. The inherited deficiency of beta-glucocerebrosidase results in Gaucher disease, which is characterized by a wide variety of symptoms including hepatosplenomegaly, anemia, thrombocytopenia, bony lesions and bone marrow infiltration with characteristic storage cells, known as Gaucher cells. […] Blue fluorescence substrate assay: […] Read the plate in Viewlux plate reader (Ex=365(10) and Em=440(10)).
Active and inactive are the calls of the source. No stated cut-off is given here; in the data, active means potency below about 10 µM; inactive means the rest.
Respond only with the outcome that fits, drawn from active, inactive

Query: Could you please tell me the result logged for CN(C)CCn1c(CO)nc2c1c(=O)n(C)c(=O)n2C in this assay?
Result: inactive

---

target: Cytochrome P450 3A4 (Homo sapiens) (UniProt P08684); test: qHTS Assay for Activators of Cytochrome P450 3A4 (AID 885); conditions: recombinant CYP3A4, Luciferin-PPXE luminescence, 60 min; series mostly up to 11.4 µM; further: nearly all actives have a fitted effect of over 65% in size
Sequence (P08684 whole entry, looked up): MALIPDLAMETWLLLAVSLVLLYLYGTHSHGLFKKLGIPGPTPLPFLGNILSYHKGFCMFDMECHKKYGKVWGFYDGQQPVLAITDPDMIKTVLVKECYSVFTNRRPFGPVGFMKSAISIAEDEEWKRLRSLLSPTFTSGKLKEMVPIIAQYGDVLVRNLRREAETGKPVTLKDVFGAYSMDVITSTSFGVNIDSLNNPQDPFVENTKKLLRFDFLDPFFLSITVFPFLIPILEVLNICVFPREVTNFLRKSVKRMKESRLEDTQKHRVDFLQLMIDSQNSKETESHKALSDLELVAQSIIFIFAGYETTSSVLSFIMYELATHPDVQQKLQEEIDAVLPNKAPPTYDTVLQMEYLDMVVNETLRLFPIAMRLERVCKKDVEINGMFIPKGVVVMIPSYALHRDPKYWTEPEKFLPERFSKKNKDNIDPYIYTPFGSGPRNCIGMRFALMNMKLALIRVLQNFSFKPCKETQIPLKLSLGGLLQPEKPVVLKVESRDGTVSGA
The source made the active and inactive calls. Calls follow the shape of the dose curve; as a rule, active = well fitted activation curve with a large enough effect; inconclusive = small, poorly fitted or top-dose-only effect; inactive = no such curve, though single readings can be large or run the other way.
Respond only with the outcome that fits, drawn from active, inactive

# count of solved cases: 2
>  <compound-string>
N#CCCn1c(=O)c(-c2cc(F)cc(F)c2)nc2cnc(Oc3cccc(Cl)c3)nc21

>  <classification>
inactive

$$$$
>  <compound-string>
Nc1nc(-c2cccs2)cs1

>  <classification>
inactive

$$$$

Now for another entry.
Query: Could you please tell me the result logged for CSc1cccc(NC(=O)OC2CCCCCCCCCCC2)c1 in this assay?
Result: inactive

---

Catalogue of activity change, negative = cytotoxicity values
assay: Cell Viability - NIH 3T3 (AID 541); settings: NIH 3T3 cell viability, qHTS; at 92.2 µM (top of the series);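 further: cells exposed to compound for 40 hours; plate controls were DMSO alone for no effect and tamoxifen positive control for full effect; nearly all actives have a fitted effect of over 25% in size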
Inconclusive results are not listed.
Your answer should be a plain number; it is taken to be in %.

>  <molecule>
CC(C)OCC1CO1 (centres undefined)

>  <units>
%

>  <activity change, negative = cytotoxicity>
-16.9

$$$$

Query: Consider the molecule Oc1ccc(O)c2c(O)cccc12 and give its measured activity change, negative = cytotoxicity.
Result: -29

Query: Consider the molecule Nc1cnn([C@@H]2O[C@H](CO)[C@@H](O)[C@H]2O)c(=O)n1 and give its measured activity change, negative = cytotoxicity.
Result: 4.75

Query: Consider the molecule CCCCC(CC)COCCCN (centres undefined) and give its measured activity change, negative = cytotoxicity.
Result: -23.1

---

Test system: TAB109
Assay: qHTS profiling for inhibitors of Plasmodium falciparum proliferation (AID 504749); further: nearly all actives have a fitted effect of over 60% in size
Details: P. falciparum in erythrocytes, SYBR Green DNA, 72 h; series mostly up to 28.7 µM
Experimental: NIH National Institute of Allergy and Infectious Diseases [NIAID] NIH Chemical Genomics Center [NCGC] […] Because mature erythrocytes lack DNA, only Plasmodium-derived DNA is detected. NCGC Assay Protocol Summary: The SYBR Green viability assay was adapted from a method described previously (Plouffe et al., 2008). […] The following morning, fluorescence intensity at 485(14) nm excitation and 535(25) nm emission wavelengths was measured on an EnVision (Perkin Elmer) plate reader. […]
Results filed as inconclusive are left out. The source made the active and inactive calls. Calls come from the whole dose curve; as a rule, active = well fitted inhibition curve with a large enough effect; inconclusive = small, poorly fitted or top-dose-only effect; inactive = flat fitted curve, though single readings scatter.
Respond only with the outcome that fits, drawn from active, inactive

>  <compound>
C[C@]12CC[C@H]3c4ccc(O)cc4CC[C@@H]3[C@H]1CC[C@@H]2OP(=O)(O)O

>  <classification>
inactive

$$$$
>  <compound>
Cc1onc(-c2c(F)cccc2Cl)c1C(=O)N[C@@H]1C(=O)N2[C@H]1SC(C)(C)[C@H]2C(=O)O

>  <classification>
inactive

$$$$
>  <compound>
O=C(O)[C@@H](S)[C@H](S)C(=O)O

>  <classification>
active

$$$$
>  <compound>
CC(C)(C)NC[C@@H](O)c1ccc(O)c(CO)n1

>  <classification>
inactive

$$$$
>  <compound>
C=C(NC(=O)C(=C)NC(=O)c1csc(C2=N[C@@H]3c4csc(n4)[C@@H]4NC(=O)c5csc(n5)[C@@H]([C@](C)(O)[C@H](C)O)NC(=O)[C@@H]5CSC(=N5)/C(=C/C)NC(=O)[C@@H]([C@H](C)O)NC(=O)c5csc(n5)[C@]3(CC2)NC(=O)[C@@H](C)NC(=O)C(=C)NC(=O)[C@@H](C)NC(=O)[C@@H]([C@@H](C)CC)N[C@H]2C=Cc3c([C@H](C)O)cc(nc3[C@@H]2O)C(=O)O[C@H]4C)n1)C(N)=O

>  <classification>
active

$$$$
>  <compound>
C[C@H](CCC(=O)O)[C@H]1CC[C@@H]2[C@H]3[C@@H](C[C@@H](O)[C@]21C)[C@]1(C)CC[C@H](O)C[C@@H]1C[C@@H]3O

>  <classification>
inactive

$$$$
>  <compound>
CN(C)[C@H]1C(=O)C(C(=O)NCN2CCCC2)=C(O)[C@]2(O)C(=O)C3=C(O)c4c(O)cccc4[C@](C)(O)[C@H]3C[C@H]12

>  <classification>
inactive

$$$$
>  <compound>
CN1[C@@H]2CC(OC(=O)[C@@H](CO)c3ccccc3)C[C@@H]1[C@H]1O[C@H]12 (some centres undefined)

>  <classification>
inactive

$$$$

Now for another entry.
Query: Could you please tell me the result logged for C[C@H]1C[C@@H]2[C@H]3CCC4=CC(=O)C=C[C@@]4(C)[C@@]3(Cl)[C@@H](O)C[C@]2(C)[C@]1(OC(=O)c1ccco1)C(=O)CCl in this assay?
Result: active

---

assay: Cell Viability - LYMP1-003 - Assay at 24 hr (AID 963); settings: LYMP1-003 lymphoblastoid cell viability; series mostly up to 92.2 µM;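 further: plate controls were DMSO only for no effect and tetraoctylammonium bromide positive control for full effect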
The source made the active and inactive calls. Calls come from the whole dose curve; as a rule, active = well fitted cell-killing curve with a large enough effect; inconclusive = small, poorly fitted or top-dose-only effect; inactive = flat fitted curve, though single readings scatter.
Respond only with the outcome that fits, drawn from TRUE for active, FALSE for inactive

>  <molecule>
NC(=O)c1ccc([N+](=O)[O-])cc1

>  <classification>
FALSE

$$$$
>  <molecule>
O=C=Nc1ccc(Cl)c(Cl)c1

>  <classification>
FALSE

$$$$
>  <molecule>
O=[N+]([O-])c1ccccc1Nc1ccccc1

>  <classification>
FALSE

$$$$

Query: Could you please tell me the result logged for O=C(O)c1cc(N=Nc2ccc([N+](=O)[O-])cc2)ccc1O in this assay?
Result: FALSE

Query: Could you please tell me the result logged for Cc1cccnc1 in this assay?
Result: FALSE

Query: Could you please tell me the result logged for C=CC(=O)CC in this assay?
Result: FALSE

Query: Could you please tell me the result logged for CC(CCC(=O)O)(c1ccc(O)cc1)c1ccc(O)cc1 in this assay?
Result: FALSE

Query: Could you please tell me the result logged for CCCCCCCCOc1ccc(C(=O)O)cc1 in this assay?
Result: FALSE

Query: Could you please tell me the result logged for Clc1nc2ccccc2nc1Cl in this assay?
Result: FALSE

Query: Could you please tell me the result logged for COc1ccc(C(=O)Nc2ccccc2)cc1[N+](=O)[O-] in this assay?
Result: FALSE

Query: Could you please tell me the result logged for CC(=O)Nc1cccc(C)c1 in this assay?
Result: FALSE

Query: Could you please tell me the result logged for CCC(Cl)CC(Cl)C(Cl)C(Cl)C(Cl)C(C)Cl (stereo not drawn) in this assay?
Result: FALSE
